Recorded values, source PubChem BioAssay (NCI).

System: KM12 colon
protocol notes: NCI-60 one-dose screen, 48 h (100 = growth as untreated, 0 = no growth, -100 = all killed)
test parameters: 10 µM unless noted
This is part of a sample that, as a whole, favours compounds with a hit. Of some 83,000 tested, about 20% had one in any assay.
Please enter criterion met where growth is greater than or equal to 90%, and criterion not met where it is lower.

input: Dear colleague, could you confirm whether "Cc1c(-c2ccc(O)cc2)n(Cc2ccc(OCCN3CCCCCC3)cc2)c2ccc(O)cc12" has growth at or above 90%?
output: criterion not met

input: Dear colleague, could you confirm whether "COc1cccc(/C=C2\COc3ccc(O)c(O)c3C2=O)c1" has growth at or above 90%?
output: criterion not met

input: Dear colleague, could you confirm whether "O=C1Nc2ccc(C(=O)O)cc2/C1=N/c1nnc(Sc2ccccc2)s1" has growth at or above 90%?
output: criterion met

input: Dear colleague, could you confirm whether O=C(c1nn(-c2ccccc2)c2c1CC(NCc1ccc(F)cc1)CC2)N1CCCCC1 (stereo not given) has growth at or above 90%?
output: criterion met

input: Dear colleague, could you confirm whether "O=S(=O)(Nc1cc(Cl)ccc1Cl)c1ccc(-c2cnc(C3CC3)o2)cc1" has growth at or above 90%?
output: criterion not met

input: Dear colleague, could you confirm whether "Fc1ccc(CNc2c3ccccc3nc3ccccc23)c(F)c1" has growth at or above 90%?
output: criterion not met

input: Dear colleague, could you confirm whether CC(O)(c1ccccc1)C(c1ccccc1)C1CCCCN1 (stereo not given) has growth at or above 90%?
output: criterion met

----------
Tested on: BT-549 breast
protocol notes: NCI-60 one-dose screen, 48 h (100 = growth as untreated, 0 = no growth, -100 = all killed)
test parameters: 10 µM unless noted
The panel holds about 83,000 compounds, 20% with a hit somewhere; the sample as a whole holds those more often.
The class of a record is decided solely by its measured growth; consult lower band = under 40%, central band = from 40% up to 90%, upper band = 90% and over

Worked cases, answers included:
N=C(N)c1ccc(-c2ccc(-c3ccc(Cl)cc3Cl)s2)cc1    upper band
O=C(O)c1cn(C2CC2)c2cc(N3CCN(Cc4ccc5ccccc5c4O)CC3)c(F)cc2c1=O    lower band

input: Assign a bin to "O=C(Nc1ccc(Oc2cccc(Cl)c2)c(Cl)c1)c1cnccn1"
output: central band

input: Assign a bin to COC(CC(F)F)c1cn(S(=O)(=O)c2ccc(C)cc2)c2ccccc12 (stereo not given)
output: lower band

input: Assign a bin to Fc1cnccc1C1CC(c2ccc(N3CCNCC3)cc2)=NN1 (stereo not given)
output: central band

input: Assign a bin to Nc1c(C(=O)Nc2ccncc2)sc2nc3c(cc12)C(O)CCC3 (stereo not given)
output: upper band

input: Assign a bin to "Nc1nc2ccccc2c2c1S(=O)(=O)c1ccc(Cl)cc1C2=O"
output: lower band

----------
System: SF-295 CNS
protocol notes: NCI-60 one-dose screen, 48 h
test parameters: 10 µM unless noted
Protocol: Cells are grown in 96 well plates and exposed to the test compound for 48 hours. Compounds are tested at a single concentration, which is 10^-5 M for most compounds. The reported endpoint is percent growth (GI% or GIPRCNT), where numbers from 0 - 100% represent growth inhibition, and numbers from -100% - 0 represent cell death. For example, a value of 40 represents 60% growth inhibition. A value of 0 means no net growth occurred over the course of the experiment. […]
This is part of a sample that, as a whole, favours compounds with a hit. Of some 83,000 tested, about 20% had one in any assay. Activity calls are given as the source filed them. The calls were made as follows: active = growth percent below 10; inactive = the rest.
Outcome (select one): True = active, False = inactive

Cc1[nH]c(=O)[nH]c(=O)c1Br    False
CN1C(=O)/C(=C\c2c(Cl)cccc2Cl)c2ccccc21    False
COC1=CC(c2ccc[nH]2)=N/C1=C\c1[nH]c(C)c(CC(=O)OCc2ccccc2)c1CCC(=O)OCc1ccccc1    True
COc1ccc(C(=O)Nc2cccc(-c3cc(=O)c4c(OC)c(OC)c(OC)cc4o3)c2)cc1    False
O=C(CN1C(=O)S/C(=C\C(Cl)=C\c2ccccc2)C1=O)NCCc1ccc(O)cc1    False

input: Please indicate how the test categorized "COc1ccc(C/C(C)=C(\c2ccc(Cl)cc2)c2ccc(OCCN3CCCCC3)cc2)cc1" .
output: False

input: Please indicate how the test categorized "CC(=O)c1c(C)nc(SCC(=O)Nc2cccc(O)c2)n1-c1ccc(Cl)cc1" .
output: False
